tested on: Huh7 cells; assay: MTT cell viability assay, Huh7; assay type: cell-based; settings: Homo sapiens, Huh-7, 24 h of treatment, MTT
metric_name: pIC50
The meaning of pIC50 here: minus log10 of the concentration in molar units.

## Input Look up pIC50 for this compound: CCCCCCCCc1ccc(CCC(N)(CO)CO)cc1
## Output 5.32

## Input What do you have for CCC[C@@](N)(CO)CCc1ccc(OCCCCCC(C)C)cc1 ?
## Output 5.62

----------
test system: PLC5 cells; experiment: MTT cell viability assay, PLC5; format: cell-based; conditions: 24 h of treatment
Would you kindly list pIC50 for each of these compounds?
The meaning of pIC50 here: minus log10 of the concentration in molar units.

## Input Look up pIC50 for this compound: CCC[C@@](N)(CO)CCc1ccc(OCCCCCC(C)C)cc1 [OSU-2S]
## Output 5.46

## Input What do you have for CCCCCCCCc1ccc(CCC(N)(CO)CO)cc1 [FTY720] ?
## Output 5.21
